Biological target: CaSla1-D1-D2
Assay: SPOT peptide array binding signal intensity (averaged, normalized) (arbitrary units (background-subtracted, floor 0; scale differs between SH3 domains)); higher = stronger binding of the SH3 domain to the peptide
Measured Metric: SPOT peptide array binding signal intensity

Binder | Qualifier Symbol | Val
TKHKAPPPPPPTAET | = | 6.5
DGNEEKPLLPTRPNK | ≤ | 0
VSKLRSPNTPRRLRK | = | 270
VQKRKLPLPGSIASA | = | 118
ALKQKKIPPPFKPHL | ≤ | 0
APPPPPRRATPEKKP | = | 1170
TSIEIPKRSPLRFTS | = | 83
RTRRRPPPPPIPSTQ | = | 2100
SSAAPPPPPRRATPE | = | 1870
SKIRPTPRKPSRMAT | = | 1470
PKRRAPPPVPKKPSS | = | 3270
ISPPASPPPEFDFSK | ≤ | 0
VRTRRRPPPPPIPST | = | 2380
VLRFLGFPLPIFEKG | = | 4
NNQRRKPLLLNIGDH | ≤ | 0
